The reported numbers originate from ChEMBL document CHEMBL1255187.

System: Geranylgeranyl transferase type I (Homo sapiens, UniProt P49354+P53609)
Assay overview: Inhibition of human geranylgeranyltransferase-1 assessed as incorporation of [3H]GGPP into H-Ras-CVLL
Format: protein-complex assay
Recorded metric: IC50 (µM)

Previously resolved entries follow.
- Cn1cnc(S(=O)(=O)N(CCN(Cc2cncn2C)c2ccc(C#N)cc2)Cc2ccsc2)c1: 0.94
- Cn1cnc(S(=O)(=O)N(CCN(Cc2cncn2C)c2ccc(C#N)cc2)Cc2ccc(C#N)cc2)c1: 6.5

P = Cn1cncc1CN(CCN(Cc1ccccc1)S(=O)(=O)c1cccc2cccnc12)c1ccc(C#N)cc1
Q = Cn1cncc1CN(CCN(Cc1ccccc1)S(=O)(=O)c1ccccn1)c1ccc(C#N)cc1
R = Cn1cnc(S(=O)(=O)N(CCCN(Cc2cncn2C)c2ccc(C#N)cc2)Cc2ccccc2)c1
S = Cc1noc(C)c1CN(CCN(Cc1cncn1C)c1ccc(C#N)cc1)S(=O)(=O)c1cn(C)cn1
Q: Arrange the 4 entries by IC50 so the values rise. Respond with the label ranking, as requested.
Ans: Q, S, R, P
(Q: 0.82 µM, S: 1.36 µM, R: 4.6 µM, P: 10 µM)

P = CN(C)c1cccc2c(S(=O)(=O)N(CCN(Cc3cncn3C)c3ccc(C#N)cc3)Cc3ccccc3)cccc12
Q = C=C(C)CN(CCN(Cc1cncn1C)c1ccc(C#N)cc1)S(=O)(=O)c1cn(C)cn1
Q: Select the item whose IC50 value is smaller, choosing between P and Q . Respond with the label that goes with your answer.
Ans: Q
(Q: 0.6 µM, P: 10 µM)

1 = Cn1cnc(S(=O)(=O)N(Cc2ccccc2)[C@@H]2CC[C@@H](N(Cc3cncn3C)c3ccc(C#N)cc3)C2)c1 (racemic)
2 = Cc1cccc(CN(CCN(Cc2cncn2C)c2ccc(C#N)cc2)S(=O)(=O)c2cn(C)cn2)c1
Q: Among 1 and 2 , whose measured IC50 is the smaller figure? Mark your answer with the label of the selected entry.
Ans: 2

a = Cn1cnc(S(=O)(=O)N(CCN(Cc2cncn2C)c2ccc(-c3ccccc3)cc2)Cc2ccccc2)c1
b = Cn1cncc1CN(CCN(Cc1ccccc1)S(=O)(=O)c1cccs1)c1ccc(C#N)cc1
Q: From the recorded data, which exceeds the other in IC50: a or b ? Indicate which entry you chose by stating its label.
Ans: b
(b: 10 µM, a: 5 µM)

1 = Cn1cnc(S(=O)(=O)N(CCN(Cc2cncn2C)c2ccc(C#N)c(F)c2)CC2CCN(c3ncccn3)CC2)c1
2 = Cn1cnc(S(=O)(=O)N(CCN(Cc2cncn2C)c2ccc(C#N)cc2)Cc2cccs2)c1
Q: Hi there, can you help? I need to know whether 1 or 2 has lower measured IC50. Please reply using the label of the selected record.
Ans: 2
